assay: Solubility in different pH solution and pH changes of the solution; format: physicochemical; conditions: pH = 8 solution, pH 8, aqueous buffer, pH = 8 solution; read-out: Solubility (2)
property: solubility

[[record]]
cpd_smiles = "COc1cc2c(cc1OC)CN1CCc3cc4c(cc3[C@@H]1C2)OCO4"
property = "solubility"
data_value = "< 10 µg/mL"


###

assay: Pharmacokinetics study in rats (gavage and intravenous); type: in vivo, SD rats; conditions: male, SD, rat, plasma, po, 20 mg/kg, gavage 20 mg/kg, individual animals 1-3, read-out: Tmax
property: Tmax (min)

[[record]]
cpd_smiles = "COc1cc2c(cc1OC)CN1CCc3cc4c(cc3[C@@H]1C2)OCO4"
property = "Tmax"
value_unit = "min"
data_value = 30

